target: DNA gyrase subunit B (Mycobacterium smegmatis, UniProt P0C559); test: Inhibition of Mycobacterium smegmatis GyrB ATPase activity expressed in Escherichia coli BL21 (DE3) pLysS cells after 100 mins by inorganic phosphate release detection based malachite green reagent assay
Sequence (P0C559 whole entry): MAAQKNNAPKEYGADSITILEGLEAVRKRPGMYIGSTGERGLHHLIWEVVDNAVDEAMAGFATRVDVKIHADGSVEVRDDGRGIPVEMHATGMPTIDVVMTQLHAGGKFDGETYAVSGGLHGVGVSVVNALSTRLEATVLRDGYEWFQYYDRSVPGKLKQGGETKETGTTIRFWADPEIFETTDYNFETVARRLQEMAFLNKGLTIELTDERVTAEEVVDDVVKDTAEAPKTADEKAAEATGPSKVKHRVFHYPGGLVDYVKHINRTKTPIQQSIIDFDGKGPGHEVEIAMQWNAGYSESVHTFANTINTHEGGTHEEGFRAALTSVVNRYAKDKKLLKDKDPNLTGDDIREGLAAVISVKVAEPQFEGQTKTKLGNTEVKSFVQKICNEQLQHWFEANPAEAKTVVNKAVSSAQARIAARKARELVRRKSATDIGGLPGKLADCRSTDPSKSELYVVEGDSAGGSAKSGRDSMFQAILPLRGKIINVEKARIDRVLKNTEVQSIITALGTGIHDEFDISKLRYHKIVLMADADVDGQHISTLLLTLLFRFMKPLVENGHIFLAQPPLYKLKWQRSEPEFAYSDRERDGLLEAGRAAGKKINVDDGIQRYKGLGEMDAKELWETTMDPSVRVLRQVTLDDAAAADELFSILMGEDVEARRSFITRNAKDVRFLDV
pIC50: −log10 of the molar value.
Classify by measured pIC50: yes if it is equal to or exceeds 5, no if it is smaller.

Previously resolved entries follow.
INSERT INTO assay_data (molecule, grouplabel) VALUES
  ('Cc1cc(N2CCC(NC(=O)Nc3ccccc3)CC2)c2cc(C(F)(F)F)ccc2n1', 'no'),
  ('Cc1cc(N2CCC(NC(=S)Nc3ccc(Cl)cc3)CC2)c2cc(C(F)(F)F)ccc2n1', 'no'),
  ('Cc1cc(N2CCC(NC(=O)Nc3ccc(F)cc3)CC2)c2cc(F)ccc2n1', 'yes'),
  ('Cc1ccc(NC(=S)NC2CCN(c3cc(C)nc4ccc(F)cc34)CC2)cc1', 'no'),
  ('Cc1cc(N2CCC(NC(=O)Nc3ccc([N+](=O)[O-])cc3)CC2)c2cc(C(F)(F)F)ccc2n1', 'no'),
  ('Cc1cc(N2CCC(NC(=S)Nc3ccc(F)cc3)CC2)c2cc(C(F)(F)F)ccc2n1', 'no');

## Task Entry Cc1cc(N2CCC(NC(=O)Nc3ccc(Cl)cc3)CC2)c2cc(F)ccc2n1 : is its pIC50 no less than 5?
## Result no

## Task Entry Cc1cc(N2CCC(NC(=S)Nc3ccc([N+](=O)[O-])cc3)CC2)c2ccccc2n1 : is its pIC50 no less than 5?
## Result yes

## Task Entry Cc1cc(N2CCC(NC(=O)Nc3ccc(Cl)cc3)CC2)c2cc(C(F)(F)F)ccc2n1 : is its pIC50 no less than 5?
## Result no

## Task Entry COc1ccc2nc(C)cc(N3CCC(NC(=S)Nc4ccccc4)CC3)c2c1 : is its pIC50 no less than 5?
## Result yes

## Task Entry Cc1cc(N2CCC(NC(=O)Nc3ccccc3)CC2)c2ccccc2n1 : is its pIC50 no less than 5?
## Result no

## Task Entry COc1ccc2nc(C)cc(N3CCC(NC(=O)Nc4ccc([N+](=O)[O-])cc4)CC3)c2c1 : is its pIC50 no less than 5?
## Result yes

## Task Entry Cc1cc(N2CCC(NC(=O)Nc3ccc(F)cc3)CC2)c2cc(C(F)(F)F)ccc2n1 : is its pIC50 no less than 5?
## Result no

## Task Entry COc1ccc2nc(C)cc(N3CCC(NC(=S)Nc4ccc([N+](=O)[O-])cc4)CC3)c2c1 : is its pIC50 no less than 5?
## Result yes

## Task Entry Cc1cc(N2CCC(NC(=O)Nc3ccc([N+](=O)[O-])cc3)CC2)c2cc(F)ccc2n1 : is its pIC50 no less than 5?
## Result yes

## Task Entry COc1ccc(NC(=S)NC2CCN(c3cc(C)nc4ccccc34)CC2)cc1 : is its pIC50 no less than 5?
## Result no

## Task Entry COc1ccc(NC(=O)NC2CCN(c3cc(C)nc4ccc(C(F)(F)F)cc34)CC2)cc1 : is its pIC50 no less than 5?
## Result no

## Task Entry Cc1cc(N2CCC(NC(=S)Nc3ccc([N+](=O)[O-])cc3)CC2)c2cc(C(F)(F)F)ccc2n1 : is its pIC50 no less than 5?
## Result no

## Task Entry Cc1ccc(NC(=S)NC2CCN(c3cc(C)nc4ccc(C(F)(F)F)cc34)CC2)cc1 : is its pIC50 no less than 5?
## Result no

## Task Entry COc1ccc2nc(C)cc(N3CCC(NC(=S)Nc4ccc(Cl)cc4)CC3)c2c1 : is its pIC50 no less than 5?
## Result yes

## Task Entry COc1ccc(NC(=O)NC2CCN(c3cc(C)nc4ccccc34)CC2)cc1 : is its pIC50 no less than 5?
## Result no

## Task Entry Cc1cc(N2CCC(NC(=S)Nc3ccccc3)CC2)c2cc(F)ccc2n1 : is its pIC50 no less than 5?
## Result no

## Task Entry Cc1cc(N2CCC(NC(=S)Nc3ccc(Cl)cc3)CC2)c2cc(F)ccc2n1 : is its pIC50 no less than 5?
## Result no

## Task Entry Cc1ccc(NC(=O)NC2CCN(c3cc(C)nc4ccc(F)cc34)CC2)cc1 : is its pIC50 no less than 5?
## Result no
